Run conditions: in methanol, 308.15 K

Sample smiles	solubility (mole fraction)
CC(=O)O[C@]1(C(C)=O)CC[C@H]2[C@@H]3C=C(Cl)C4=CC(=O)[C@@H]5C[C@@H]5[C@]4(C)[C@H]3CC[C@@]21C	0.00023

* * *

Run conditions: in methanol, 298.15 K
Measurement type: solubility (mole fraction)

Sample smiles	Measurement type	Val
CC(=O)O[C@]1(C(C)=O)CC[C@H]2[C@@H]3C=C(Cl)C4=CC(=O)[C@@H]5C[C@@H]5[C@]4(C)[C@H]3CC[C@@]21C	solubility (mole fraction)	0.00023

* * *

Run conditions: in water, 313.15 K

Sample smiles	solubility (mole fraction)
CC(=O)O[C@]1(C(C)=O)CC[C@H]2[C@@H]3C=C(Cl)C4=CC(=O)[C@@H]5C[C@@H]5[C@]4(C)[C@H]3CC[C@@]21C	6.36e-06

* * *

Run conditions: in MTBE, 273.15 K
Measurement type: solubility (mole fraction)

Sample smiles	Measurement type	Val
CC(=O)O[C@]1(C(C)=O)CC[C@H]2[C@@H]3C=C(Cl)C4=CC(=O)[C@@H]5C[C@@H]5[C@]4(C)[C@H]3CC[C@@]21C	solubility (mole fraction)	0.000675

* * *

Run conditions: in water, 293.15 K

Sample smiles	solubility (mole fraction)
CC(=O)O[C@]1(C(C)=O)CC[C@H]2[C@@H]3C=C(Cl)C4=CC(=O)[C@@H]5C[C@@H]5[C@]4(C)[C@H]3CC[C@@]21C	2.09e-06

* * *

Run conditions: in methanol, 273.15 K
Measurement type: solubility (mole fraction)

Sample smiles	Measurement type	Val
CC(=O)O[C@]1(C(C)=O)CC[C@H]2[C@@H]3C=C(Cl)C4=CC(=O)[C@@H]5C[C@@H]5[C@]4(C)[C@H]3CC[C@@]21C	solubility (mole fraction)	0.000229

* * *

Run conditions: in MTBE, 288.15 K
Measurement type: solubility (mole fraction)

Sample smiles	Val
CC(=O)O[C@]1(C(C)=O)CC[C@H]2[C@@H]3C=C(Cl)C4=CC(=O)[C@@H]5C[C@@H]5[C@]4(C)[C@H]3CC[C@@]21C	0.000676

* * *

Run conditions: in water, 273.15 K

Sample smiles	solubility (mole fraction)
CC(=O)O[C@]1(C(C)=O)CC[C@H]2[C@@H]3C=C(Cl)C4=CC(=O)[C@@H]5C[C@@H]5[C@]4(C)[C@H]3CC[C@@]21C	6.57e-07

* * *

Run conditions: in water, 318.15 K

Sample smiles	solubility (mole fraction)
CC(=O)O[C@]1(C(C)=O)CC[C@H]2[C@@H]3C=C(Cl)C4=CC(=O)[C@@H]5C[C@@H]5[C@]4(C)[C@H]3CC[C@@]21C	8.21e-06

* * *

Run conditions: in MTBE, 303.15 K

Sample smiles	solubility (mole fraction)
CC(=O)O[C@]1(C(C)=O)CC[C@H]2[C@@H]3C=C(Cl)C4=CC(=O)[C@@H]5C[C@@H]5[C@]4(C)[C@H]3CC[C@@]21C	0.000678

* * *

Run conditions: in methanol, 303.15 K

Sample smiles	solubility (mole fraction)
CC(=O)O[C@]1(C(C)=O)CC[C@H]2[C@@H]3C=C(Cl)C4=CC(=O)[C@@H]5C[C@@H]5[C@]4(C)[C@H]3CC[C@@]21C	0.00023

* * *

Run conditions: in methanol, 318.15 K

Sample smiles	solubility (mole fraction)
CC(=O)O[C@]1(C(C)=O)CC[C@H]2[C@@H]3C=C(Cl)C4=CC(=O)[C@@H]5C[C@@H]5[C@]4(C)[C@H]3CC[C@@]21C	0.000231

* * *

Run conditions: in methanol, 283.15 K

Sample smiles	solubility (mole fraction)
CC(=O)O[C@]1(C(C)=O)CC[C@H]2[C@@H]3C=C(Cl)C4=CC(=O)[C@@H]5C[C@@H]5[C@]4(C)[C@H]3CC[C@@]21C	0.000229

* * *

Run conditions: in MTBE, 298.15 K
Measurement type: solubility (mole fraction)

Sample smiles	Measurement type	Val
CC(=O)O[C@]1(C(C)=O)CC[C@H]2[C@@H]3C=C(Cl)C4=CC(=O)[C@@H]5C[C@@H]5[C@]4(C)[C@H]3CC[C@@]21C	solubility (mole fraction)	0.000677
